VALUE TYPE: melting point

# melting point of `CCCC(CCC)c1ccc(CNC(=O)c2ccc(-c3csc(CN(CC(=O)O)Cc4ccccc4)n3)cc2)cc1` = 141 to 143 °C

response.value for `CCCC(CCC)N(Cc1ccc(-c2csc(COc3cccc(C(=O)O)c3)n2)cc1)c1ccc(C(C)C)cc1` (field: melting point) = 127 to 129 °C

Summary for this compound, `CCCC(CCC)c1ccc(COc2ccc(-c3csc(CN4CCN(c5ccc(C(=O)O)cc5)CC4)n3)cc2)cc1` : melting point is 241 to 243 °C

Measured melting point of `CCC(CC)c1ccc(N(Cc2ccc(-c3csc(CN4CCN(c5ccc(C(=O)O)cc5)CC4)n3)cc2)C(C)C)cc1` : 232 to 234 °C

`CCC(CC)N(Cc1ccc(-c2csc(CN3Cc4ccccc4C[C@H]3C(=O)O)n2)cc1)c1ccc(C(C)C)cc1` has a reported melting point of 110 to 113 °C

For record `CCC(CC)c1ccc(N(Cc2ccc(-c3csc(COc4cc(OC)cc(C(=O)O)c4)n3)cc2)C(C)C)cc1` the listed melting point is 131 °C

Reported melting point ( `CCCC(CCC)c1ccc(COc2ccc(-c3csc(CN4Cc5ccccc5C[C@H]4C(=O)[O-])n3)cc2)cc1.[Na+]` ) = 254 to 255 °C

Entry `CCCC(CCC)c1ccc(OCc2ccc(-c3csc(CN(CC(=O)O)C(=O)COc4ccc(C)cc4)n3)cc2)cc1` , melting point reported as 170 to 172 °C

Per the record, `CCCC(CCC)c1ccc(OCc2ccc(-c3ccc(CN(CC(=O)O)Cc4ccc(SC)cc4)s3)cc2)cc1` has melting point of 202.7 to 204.3 °C

For record `CCCC(CCC)c1ccc(Cn2c(-c3csc(CN4CCN(c5cccc(C(=O)O)c5)CC4)n3)nc3ccccc32)cc1` the listed melting point is 179.8 to 181.2 °C

---

TARGET OR SYSTEM: Recombinant human protein tyrosine phosphatase 1B (Homo sapiens)
Construct: purchased UBI
Sequence (P18031 whole entry): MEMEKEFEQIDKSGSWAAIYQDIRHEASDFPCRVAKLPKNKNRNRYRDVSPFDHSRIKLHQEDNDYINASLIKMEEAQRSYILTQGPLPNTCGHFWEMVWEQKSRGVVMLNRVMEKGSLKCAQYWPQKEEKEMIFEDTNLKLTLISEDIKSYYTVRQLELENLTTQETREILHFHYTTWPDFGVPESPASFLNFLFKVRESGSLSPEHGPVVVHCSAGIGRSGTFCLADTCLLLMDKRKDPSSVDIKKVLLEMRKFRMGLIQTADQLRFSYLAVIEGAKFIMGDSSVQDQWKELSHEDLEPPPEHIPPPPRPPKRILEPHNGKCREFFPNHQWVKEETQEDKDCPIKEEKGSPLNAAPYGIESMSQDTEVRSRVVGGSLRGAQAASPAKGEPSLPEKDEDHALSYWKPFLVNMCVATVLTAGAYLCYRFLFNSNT
MEASUREMENT DESCRIPTION: Protein tyrosine phosphatase 1B inhibitory activity (malachite green, phosphorylated insulin receptor peptide substrate)
Type: biochemical
PARTICULARS: recombinant human PTP1B, 60 min room temperature, absorbance 650 nm
VALUE TYPE: IC50

CCCC(CCC)c1ccc(OCc2ccc(-c3ccc(CN(CC(=O)O)c4nc(-c5ccc(Cl)cc5)cs4)s3)cc2)cc1 :: < 0.1 µM
C[C@H]1CC[C@H](c2ccc(COc3ccc(-c4ccc(CN(CC5CCCCC5)S(=O)(=O)c5ccc(C(=O)O)cc5)s4)cc3)cc2)CC1 :: < 0.1 µM

Short answer for `CCCC(CCC)c1ccc(OCc2ccc(-c3ccc(CN(CC(=O)O)c4nc5ccccc5s4)s3)cc2)cc1` : IC50 was < 0.1 µM

---

Entries and their IC50
TARGET OR SYSTEM: Recombinant human protein tyrosine phosphatase 1B (Homo sapiens)
Construct: purchased UBI
MEASUREMENT DESCRIPTION: Protein tyrosine phosphatase 1B inhibitory activity (malachite green, phosphorylated insulin receptor peptide substrate)
Assay type: biochemical
PARTICULARS: recombinant human PTP1B, 60 min room temperature, absorbance 650 nm
Write the answer as a number in µM, unit excluded.

CCCC(CCC)c1ccc(OCc2ccc(-c3ccc(CN(CC(=O)O)Cc4cc5ccccc5s4)s3)cc2)cc1 :: 0.11

Proceed to the following item.
// recorded IC50 for `CCCC(CCC)c1ccc(CN(C)c2ccc(-c3csc(CN(CC(=O)O)Cc4ccccc4)n3)cc2)cc1` : 0.1

---

TARGET OR SYSTEM: Recombinant human protein tyrosine phosphatase 1B (Homo sapiens)
Construct: purchased UBI
MEASUREMENT DESCRIPTION: Protein tyrosine phosphatase 1B inhibitory activity (malachite green, phosphorylated insulin receptor peptide substrate)
Format: biochemical
PARTICULARS: recombinant human PTP1B, 60 min room temperature, absorbance 650 nm
VALUE TYPE: IC50

Guide cases for IC50, answers given:
CCCC(CCC)c1ccc(OCc2ccc(-c3ccc(CN(CC(=O)O)S(=O)(=O)c4ccc(Cl)s4)s3)cc2)cc1 :: < 0.1 µM
CCCC(CCC)c1ccc(OCc2ccc(-c3ccc(CN(CC(=O)O)Cc4cc(-c5ccccc5)cs4)s3)cc2)cc1 :: < 0.1 µM

// next entry
Reported IC50 ( `CCN(C[C@H]1CC[C@H](c2ccc(C(C)(C)C)cc2)CC1)c1ccc(-c2csc(CN3CCC(c4ccc(C(=O)O)cc4)CC3)c2)cc1` ) = < 0.1 µM

These data points were gathered from patent US20060122181A1.
